assay: Water (D2O) solubility by 1H NMR against DSS standard; assay type: physicochemical
Entries and their relative molar solubility values follow.

| compound | relative molar solubility |
| --- | --- |
| CC(=O)Nc1ccc(O[C@H]2O[C@H](C)[C@@H](O)[C@H](O)[C@@H]2O)cc1 | 2.1 |
| CC(=O)Nc1ccc(O[C@@H]2C=C[C@H](O)[C@@H](CO)O2)cc1 | 0.6 |
| CC(=O)Nc1ccc(O[C@H]2O[C@H](COC(=O)C(C)C)[C@@H](O)[C@H](O)[C@@H]2O)cc1 | 0.43 |
| CC(=O)Nc1ccc(O[C@H]2O[C@H](CO)[C@@H](O)[C@H](O)[C@@H]2O)cc1 | 1.8 |
| CC(=O)Nc1ccc(O[C@@H]2CCC(O)[C@@H](CO)O2)cc1 (some centres unmarked) | 0.3 |
| CC(=O)Nc1ccc(O[C@H]2O[C@H](CO)[C@@H](O[C@H]3O[C@H](CO)[C@@H](O)[C@H](O)[C@H]3O)[C@H](O)[C@@H]2O)cc1 [compound 5, 1-(4-acetaminophenoxy) 2-epi maltose] | >14 |
| CCCC(=O)OC[C@H]1O[C@H](Oc2ccc(NC(C)=O)cc2)[C@@H](O)[C@@H](O)[C@@H]1O | 0.81 |
| CC(=O)Nc1ccc(O[C@H]2O[C@H](COC(C)=O)[C@@H](O)[C@H](O)[C@@H]2O)cc1 | 5.6 |

###

Entries and their MRT inf values follow.
experiment: in vivo; details: male, Sprague-Dawley, rat, iv
readout-type: MRT inf (min)

| molecule | quantitative-result |
| --- | --- |
| CCCC(=O)OC[C@H]1O[C@H](Oc2ccc(NC(C)=O)cc2)[C@@H](O)[C@@H](O)[C@@H]1O | 4.56 |
| CC(=O)Nc1ccc(O[C@H]2O[C@H](COC(=O)CCC(=O)O)[C@@H](O)[C@H](O)[C@@H]2O)cc1 | 25.2 |
| CC(=O)Nc1ccc(O[C@H]2O[C@H](COC(=O)C(C)C)[C@@H](O)[C@H](O)[C@@H]2O)cc1 | 8.7 |
| CC(=O)Nc1ccc(O[C@H]2O[C@H](CO)[C@@H](O[C@H]3O[C@H](CO)[C@@H](O)[C@H](O)[C@H]3O)[C@H](O)[C@@H]2O)cc1 [compound 5, 1-(4-acetaminophenoxy) 2-epi maltose] | 39.2 |

###

assay: in vivo; details: male, Sprague-Dawley, rat, iv
Entries and their half-life values follow.

| molecule | half-life |
| --- | --- |
| CC(=O)Nc1ccc(O[C@H]2O[C@H](C)[C@@H](O)[C@H](O)[C@@H]2O)cc1 | 116 min |
| CC(=O)Nc1ccc(O[C@H]2O[C@H](CO)[C@@H](O[C@H]3O[C@H](CO)[C@@H](O)[C@H](O)[C@H]3O)[C@H](O)[C@@H]2O)cc1 [compound 5, 1-(4-acetaminophenoxy) 2-epi maltose] | 79.2 min |
| CCCC(=O)OC[C@H]1O[C@H](Oc2ccc(NC(C)=O)cc2)[C@@H](O)[C@@H](O)[C@@H]1O | 3.13 min |
| CC(=O)Nc1ccc(O[C@H]2O[C@H](COC(=O)C(C)C)[C@@H](O)[C@H](O)[C@@H]2O)cc1 | 14.6 min |
| CC(=O)Nc1ccc(O[C@H]2O[C@H](COC(=O)CCC(=O)O)[C@@H](O)[C@H](O)[C@@H]2O)cc1 | 123 min |
| CC(=O)Nc1ccc(O[C@H]2O[C@H](CO)[C@@H](O)[C@H](O)[C@@H]2O)cc1 | 39.5 min |
| CC(=O)Nc1ccc(O[C@H]2O[C@H](COC(C)=O)[C@@H](O)[C@H](O)[C@@H]2O)cc1 | 13.2 min |
